From: PubChem BioAssay

Catalogue of compounds with associated GFP response vs DMSO
# Test name: RPL19A-GFP modulators, yeast TOR pathway, confirmation, cell-based, S. cerevisiae, flow cytometry, cherry picks, mother/daughter gates (AID 2270)
# Particulars: S. cerevisiae RPL19A-GFP strain, 3 h, at 10 µM, stronger effect = lower value, 100 = same GFP as DMSO wells
Observable: GFP response vs DMSO (%)

COC(=O)Cc1csc(Nc2ccc(F)c(Cl)c2)n1: 101
O=c1[nH]c(=O)n([C@H]2C[C@H](O)[C@@H](CO)O2)cc1F: 98.6
COc1ccc(-c2cc(C(F)(F)F)nc(S(C)(=O)=O)n2)cc1: 102
C/C(=N\NC(=O)c1nonc1N)c1cccs1: 98.2
COc1ccccc1C(=O)NNC(=O)C(=O)Nc1cccc(Cl)c1C: 106
COc1ccc(C2CC(c3cccs3)=NN2S(=O)(=O)c2ccc(C)cc2)cc1 (configuration not stated): 98.7
Nc1c(C(=O)c2cccs2)sc2nsc(SCCN3CCCCC3)c12: 114
O=C(Nc1ccccc1N1CCOCC1)c1ccc([N+](=O)[O-])o1: 58.5
Cc1ccc(-c2ccc(CCC(=O)O)o2)cc1: 102
Cc1cccc(OCCN2CSC(=S)N(C)C2)c1: 95.6
C=CCNC(=O)/C(=C\c1ccc(OC)cc1)NC(=O)c1ccc([N+](=O)[O-])cc1: 97.4
O=C(O)C1CCC(NSc2ccccc2[N+](=O)[O-])CC1 (configuration not stated): 98.2

====

# Test name: RPL19A-GFP modulators, yeast TOR pathway, confirmation, cell-based, S. cerevisiae, flow cytometry, cherry picks, mother/daughter gates (AID 2270)
# Particulars: S. cerevisiae RPL19A-GFP strain, 3 h, measured here: mother cell gate, at 10 µM, stronger effect = lower value, 100 = same GFP as DMSO wells
Observable: GFP response vs DMSO (%)

O=S(=O)(c1ccc(Oc2ccc(Br)cc2)cc1)N1CCOCC1: 103
CC(C)Nc1nc(-c2ccccc2)nnc1-c1ccccc1: 97.7
CCCc1[nH]nc2c1C(c1ccc(OC)c(Cn3nnc4ccccc43)c1)C(C#N)=C(N)O2 (centres undefined): 98.2
Cc1c(Br)cc(C(=O)O)c(C)c1C: 88
Cc1csc(Nc2ccccc2C(F)(F)F)n1: 95.9
COc1ccc(/C=N/Nc2nc(-c3cccnc3)nc3ccccc23)c(OC)c1: 98.2
O=C(OCn1ncc(Br)c(Br)c1=O)c1c(F)cccc1F: 90.6
COc1cc(/C=C2\C(=O)N(CCC#N)N=C2C)c(Br)cc1OC(C)C: 102
Cc1ccc(S(=O)(=O)CC#CCOC(=O)c2ccc([N+](=O)[O-])cc2)cc1: 103
CCCc1[nH]nc2c1C1(C(=O)N(CC)c3ccccc31)C(C#N)=C(N)O2 (centres undefined): 96.9
Cn1ncc2c(O/N=C(\N)c3ccc(C(C)(C)C)cc3)ncnc21: 87.9
Cc1c(C(=O)Nc2ccccc2)cnn1-c1ccccc1: 99.2
COc1ccc(C(=O)/C(=C/O)N=Nc2ccc(F)cc2)cc1: 98.6
COc1cc(NC(=O)c2oc3ccccc3c2C)ccc1NC(=O)c1ccco1: 98.4
Cc1ccn2c(NC3CCCCC3)c(C(C)C)nc2c1: 99.2
CCN(CC)C(=O)c1ccc(-c2cccs2)s1: 96.4
Cc1cccc(C(=O)NNC(=S)NC(=O)c2ccccc2)c1: 105
COc1ccc(OC)c(C2CC(c3c(-c4ccccc4)c4cc(Cl)ccc4[nH]c3=O)=NN2S(C)(=O)=O)c1 (centres undefined): 102
CCOC(=O)Cc1csc(NC(=O)c2sc3nc4ccc(C)cc4cc3c2N)n1: 100
O=C1c2ccsc2SCCN1Cc1ccccc1: 94.8
Clc1ccc(OCCn2cnc3ccccc32)c(Cl)c1: 89.4
NS(=O)(=O)c1ccc(Sc2ccccn2)c([N+](=O)[O-])c1: 98.5
COc1ccc(Sc2ncnc3onc(C)c23)cc1: 95.4
Cc1ccc(NC(=S)N2CCSC2c2cccs2)cc1 (centres undefined): 97.8

====

# Test name: RPL19A-GFP modulators, yeast TOR pathway, confirmation, cell-based, S. cerevisiae, flow cytometry, cherry picks, mother/daughter gates (AID 2270)
# Particulars: S. cerevisiae RPL19A-GFP strain, 3 h, at 10 µM, stronger effect = lower value, 100 = same GFP as DMSO wells
Observable: GFP response vs DMSO (%)

Cc1ccc(NC(=O)c2ccccc2O)cc1: 103
O=C(Nc1nc(-c2ccc(F)cc2)cs1)c1cnccn1: 97.8
Cc1cccn2c(=O)c(/C=C(\C#N)C(=O)NC3CCS(=O)(=O)C3)c(N3CCC(C(N)=O)CC3)nc12 (stereo unspecified): 101
CCc1nnc(NC(=O)c2ccc(S(=O)(=O)N(CCOC)CCOC)cc2)o1: 95
Cc1ccc2c(c1)c(/C=C/c1cc[n+](C)cc1)c(C)n2C: 107
CCOC(=O)c1ccc(NC(=O)CCc2nc(-c3ccccc3)no2)cc1: 97.3
Cc1cc(NC(=O)c2cccnc2Cl)ccc1NC(=O)c1cc2ccccc2o1: 98
O=c1c2c(-c3ccc(Cl)cc3)csc2ncn1/N=C/c1cccc([N+](=O)[O-])c1O: 99.3
C=CCOc1ccc(/C=C2\N=C(C)OC2=O)cc1OC: 105
COc1ccc(C(=O)c2nccc3ccccc23)cc1: 96.8
COc1cccc(C(=O)Nc2ccc(NC(=O)c3cc4ccccc4o3)c(OC)c2)c1: 100

====

Catalogue of molecules with associated GFP response vs DMSO
# Test name: RPL19A-GFP modulators, yeast TOR pathway, confirmation, cell-based, S. cerevisiae, flow cytometry, cherry picks, mother/daughter gates (AID 2270)
# Particulars: S. cerevisiae RPL19A-GFP strain, 3 h, at 10 µM, stronger effect = lower value, 100 = same GFP as DMSO wells
Active and inactive are the calls of the source.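 How the source made its calls: active means GFP response below 50% of the DMSO control; inconclusive means fewer than 70 events counted for a yeast strain; inactive means the rest.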
Observable: GFP response vs DMSO

C/C(=N\NC(=O)c1ccc(Cl)c(Cl)c1)c1cccc(NC(=O)C(C)C)c1: 99.9% (inactive)
CCOC(=O)C1C(=O)C=C(c2ccc(C)cc2)CC1c1ccco1 (centres undefined): 99.9% (inactive)
CCc1nnc(N2C(=O)c3cccc4cccc(c34)C2=O)s1: 94.5% (inactive)
CCCc1[nH]nc2c1C(c1ccccc1OC)C(C#N)=C(N)O2 (centres undefined): 98% (inactive)
Cc1ccccc1C(=O)Nc1ccccc1: 96.4% (inactive)
COc1cccc(C(=O)C(C#N)=C(SC)SC)c1: 108% (inactive)
CSC1=NS(=O)(=O)c2c(C)nn(C)c2S1: 88.7% (inactive)
COc1ccc(-c2noc(-c3cccc(Cl)c3)n2)cc1OC: 98% (inactive)
CCOc1cc(/C=C2\N=C(C)OC2=O)cc(Br)c1OCCc1ccccc1: 100% (inactive)
COc1ccccc1-c1noc(-c2cccnc2)n1: 95.3% (inactive)
CC[n+]1c(/C=C/c2ccc(N(C)C)cc2)ccc2ccccc21: 99.4% (inactive)
CCN(CC)C(=O)c1ccc(-c2cccs2)s1: 95.4% (inactive)
COc1cc(/C=C2/C(=O)ON=C2c2ccccc2)ccc1O: 105% (inactive)
Cc1cccc2c1NC(=O)/C2=C\C(=O)c1cccs1: 97.2% (inactive)
O=C(NCC(=O)N1CCCC1)c1cccs1: 99.8% (inactive)
Cc1cc(OCc2ccc(C(=O)NN=C3CCCC3)cc2)ccc1Cl: 103% (inactive)
COc1cccc(-c2nnc(NC(=O)c3ccc(S(=O)(=O)N4CCOCC4)cc3)o2)c1: 97.6% (inactive)
Cc1cccc2nc(-c3cccnc3)c(NCCC(C)C)n12: 98.8% (inactive)
CS(=O)(=O)N1N=C(c2ccc(Br)cc2)CC1c1ccc2c(c1)OCO2 (centres undefined): 102% (inactive)
CCCc1[nH]nc2c1C(c1ccc(O)cc1OCC)C(C#N)=C(N)O2 (centres undefined): 102% (inactive)
O=S(=O)(Nc1nc2ccccc2nc1Cl)c1ccc2ccccc2c1: 98.4% (inactive)
O=C(Oc1oc(-c2ccco2)nc1C=Nc1ccccc1)c1ccoc1: 99.6% (inactive)
N/C(Cc1ccc(Cl)c(Cl)c1)=N\OC(=O)c1cccs1: 94.9% (inactive)
Cc1ccc(S(=O)(=O)N(CC(=O)Nc2cccnc2)c2ccccc2C)cc1: 104% (inactive)

====

Catalogue of molecules with associated GFP response vs DMSO
# Test name: RPL19A-GFP modulators, yeast TOR pathway, confirmation, cell-based, S. cerevisiae, flow cytometry, cherry picks, mother/daughter gates (AID 2270)
# Particulars: S. cerevisiae RPL19A-GFP strain, 3 h, measured here: mother cell gate, at 10 µM, stronger effect = lower value, 100 = same GFP as DMSO wells
Observable: GFP response vs DMSO (%)

CCCC(=O)c1ccc(N2CCN(C(=O)c3ccc(Br)cc3)CC2)c(F)c1: 94
CCOc1ccc(C(=O)/C=C/c2ccc(SC)cc2)cc1: 96.8
O=C1C=CC(=O)N1c1ccc(O)cc1: 85.9
O=C1CC(Sc2ncccn2)C(=O)N1c1ccccc1C(F)(F)F (stereo unspecified): 100
COc1ccc(-c2csc(Nc3ncccc3C)n2)cc1: 95.3
Nc1cccnc1S(=O)(=O)c1cccc(C(F)(F)F)c1: 97.2
O=C(CC1SC(=Nc2ccccc2F)N(CCN2CCOCC2)C1=O)Nc1ccc(F)cc1F (stereo unspecified): 96.6
COc1ccc(CCNC2=C(Cl)C(=O)N(CCc3ccccc3)C2=O)cc1OC: 102
O=C(NC(=S)NNC(=O)[C@H]1C[C@@H]1c1ccccc1)c1cccc(F)c1: 110
CS(=O)(=O)Nc1ccc(C2=NN(S(C)(=O)=O)C(c3ccccc3)C2)cc1 (stereo unspecified): 98.6
Cn1c(=O)c2ccccc2n(Cc2cccc(F)c2)c1=O: 97.3
